Items are presented alongside their recorded MIC.
Test system: Streptococcus mutans
test_summary: Activity against planktonic Streptococcus mutans LMG 14558
Format: functional
Express your answer in µg/mL, writing the number without its unit.

chemical_string | MIC, µg/mL
Cc1cc(O)c2c(=O)c3c(O)cc(O)c4c5c(O)cc(O)c6c(=O)c7c(O)cc(C)c8c1c2c(c34)c(c78)c65 | 250
Cc1cc(O)c2c(c1)C(=O)c1cccc(O)c1C2=O | 250
O=C(O)c1cc(O)c2c(c1)C(=O)c1cccc(O)c1C2=O | 10
O=C1c2ccccc2C(=O)c2c(O)ccc(O)c21 | 250

Incoming: Return the recorded MIC value; entry: `O=C1c2ccc(O)cc2C(=O)c2ccc(O)cc21`
Outgoing: 250
